# test target: Aldo-keto reductase family 1 member B10 (Homo sapiens)
# assay comment: Inhibition of recombinant human N-terminal His6-tagged AKR1B10 expressed in Escherichia coli BL21 cells using daunorubicin as substrate incubated for 20 mins by UHPLC method
value type: IC50 (µM)
Numbers only, in µM.

Use the examples below as a reference point.
compound | IC50 (µM)
O=c1cc(-c2ccc(O)cc2)oc2cc(O)cc(O)c12 | 37.1
O=c1cc(-c2ccc(O)c(O)c2)oc2cc(O)cc(O)c12 | 108

For the next question, use this compound.
Given O=c1cc(-c2ccccc2)oc2cc(O)ccc12 [7-HYDROXYFLAVONE] , report its IC50 on Aldo-keto reductase family 1 member B10 (Homo sapiens).
160

====

# test target: Aldo-keto reductase family 1 member B1 (Homo sapiens, UniProt P15121)
# assay comment: Inhibition of recombinant N-terminal His6-tagged AKR1B1 (unknown origin) expressed in Escherichia coli BL21 cells using all-trans-retinal as substrate incubated for 15 mins by HPLC method
value type: pIC50
Numbers only, as −log10 of the molar value.

Use the examples below as a reference point.
compound | pIC50
O=c1c(-c2ccc(O)cc2)coc2cc(O)ccc12 | 3.79
O=c1cc(-c2ccccc2)oc2cc(O)ccc12 [7-HYDROXYFLAVONE] | 4.91
COc1ccc(-c2coc3cc(O)cc(O)c3c2=O)cc1 | 3.90

For the next question, use this compound.
Specify pIC50 for O=c1cc(-c2ccc(O)cc2)oc2cc(O)cc(O)c12 and stop.
4.92

====

# test target: Aldo-keto reductase family 1 member B10 (Homo sapiens, UniProt O60218)
# Sequence (O60218 whole entry): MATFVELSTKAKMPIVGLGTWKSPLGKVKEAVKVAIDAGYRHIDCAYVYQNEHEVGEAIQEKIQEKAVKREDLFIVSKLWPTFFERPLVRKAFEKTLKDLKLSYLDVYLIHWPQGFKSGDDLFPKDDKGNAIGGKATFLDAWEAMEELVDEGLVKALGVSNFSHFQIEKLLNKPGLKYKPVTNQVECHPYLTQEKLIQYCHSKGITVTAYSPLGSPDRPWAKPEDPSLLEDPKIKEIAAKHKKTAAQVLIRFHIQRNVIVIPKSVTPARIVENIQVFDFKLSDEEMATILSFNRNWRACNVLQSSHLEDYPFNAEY
# assay comment: Non-competitive inhibition of recombinant human N-terminal His6-tagged AKR1B10 expressed in Escherichia coli BL21 cells using all-trans-retinal as substrate incubated for 15 mins by Lineweaver-Burk plot analysis
value type: Ki (µM)
One number for each entry, in µM.

Given O=c1cc(-c2ccc(O)cc2)oc2cc(O)cc(O)c12 [APIGENIN] , report its Ki on Aldo-keto reductase family 1 member B10 (Homo sapiens, UniProt O60218).
6

====

# test target: Aldo-keto reductase family 1 member B10 (Homo sapiens, UniProt O60218)
# assay comment: Inhibition of recombinant human N-terminal His6-tagged AKR1B10 expressed in Escherichia coli BL21 cells using all-trans-retinal as substrate incubated for 15 mins by HPLC method
The label t is reserved for IC50 strictly under 30 µM; f covers values equal to or above it.

Below are worked cases with known answers.
molecule | assigned class
O=c1cc(-c2ccc(O)cc2)oc2cc(O)cc(O)c12 [APIGENIN] | t
O=c1cc(-c2ccc(O)c(O)c2)oc2cc(O)cc(O)c12 [LUTEOLIN] | t
O=C(O)c1ccccc1Nc1cccc(C(F)(F)F)c1 [FLUFENAMIC ACID] | f
O=c1cc(-c2ccccc2)oc2cc(O)ccc12 [7-HYDROXYFLAVONE] | t
COc1ccc(-c2coc3cc(O)cc(O)c3c2=O)cc1 [BIOCHANIN] | f

Continue with the molecule presented below.
hey, is IC50 for O=c1c(-c2ccc(O)cc2)coc2cc(O)ccc12 [DAIDZEIN] lower than 30 µM or not?
f
